Attribute: Kd
target: Serine/threonine-protein kinase MRCK gamma (Homo sapiens); note: in the data inactive means no Kd found up to 30 µM
Sequence (Q6DT37 whole entry): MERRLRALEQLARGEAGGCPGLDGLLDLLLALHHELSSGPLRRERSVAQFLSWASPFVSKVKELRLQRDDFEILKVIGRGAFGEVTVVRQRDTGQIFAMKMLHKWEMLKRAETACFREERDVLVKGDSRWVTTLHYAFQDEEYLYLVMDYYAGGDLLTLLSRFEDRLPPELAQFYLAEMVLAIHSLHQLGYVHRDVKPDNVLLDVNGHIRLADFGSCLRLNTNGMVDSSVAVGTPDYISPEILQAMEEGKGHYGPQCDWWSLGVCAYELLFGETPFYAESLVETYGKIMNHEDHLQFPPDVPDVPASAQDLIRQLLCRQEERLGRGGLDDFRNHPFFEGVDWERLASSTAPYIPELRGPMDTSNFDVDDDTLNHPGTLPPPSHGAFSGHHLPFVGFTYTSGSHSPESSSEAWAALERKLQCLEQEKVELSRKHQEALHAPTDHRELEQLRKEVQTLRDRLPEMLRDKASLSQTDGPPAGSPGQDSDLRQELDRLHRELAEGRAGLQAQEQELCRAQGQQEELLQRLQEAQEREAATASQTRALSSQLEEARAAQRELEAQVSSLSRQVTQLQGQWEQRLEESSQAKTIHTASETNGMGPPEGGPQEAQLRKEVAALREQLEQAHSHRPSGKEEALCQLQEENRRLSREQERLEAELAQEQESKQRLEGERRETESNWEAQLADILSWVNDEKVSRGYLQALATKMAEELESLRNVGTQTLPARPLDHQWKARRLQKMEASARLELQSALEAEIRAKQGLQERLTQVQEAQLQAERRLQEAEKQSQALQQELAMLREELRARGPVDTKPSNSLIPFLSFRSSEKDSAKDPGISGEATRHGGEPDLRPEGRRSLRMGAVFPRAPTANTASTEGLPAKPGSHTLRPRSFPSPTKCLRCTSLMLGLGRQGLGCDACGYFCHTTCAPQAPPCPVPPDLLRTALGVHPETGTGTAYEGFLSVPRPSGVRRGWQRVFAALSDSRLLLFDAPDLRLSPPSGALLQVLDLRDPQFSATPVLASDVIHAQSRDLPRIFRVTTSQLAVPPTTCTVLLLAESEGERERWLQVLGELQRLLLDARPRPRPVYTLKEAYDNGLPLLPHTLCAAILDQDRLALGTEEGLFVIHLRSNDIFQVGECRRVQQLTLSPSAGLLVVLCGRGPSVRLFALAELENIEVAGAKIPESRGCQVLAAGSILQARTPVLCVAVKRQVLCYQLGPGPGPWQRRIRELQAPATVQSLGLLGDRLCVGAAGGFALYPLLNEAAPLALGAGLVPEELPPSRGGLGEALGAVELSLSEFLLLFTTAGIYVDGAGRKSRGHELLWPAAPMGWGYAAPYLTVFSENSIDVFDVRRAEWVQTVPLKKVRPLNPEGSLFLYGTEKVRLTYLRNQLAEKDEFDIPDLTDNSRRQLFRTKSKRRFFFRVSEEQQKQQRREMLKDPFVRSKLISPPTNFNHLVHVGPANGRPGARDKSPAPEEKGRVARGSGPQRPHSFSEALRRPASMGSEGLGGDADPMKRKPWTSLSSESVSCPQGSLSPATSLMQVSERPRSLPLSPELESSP
The source made the active and inactive calls.

Past entries and their recorded results:
- COMPOUND: "CC(C)Nc1cc(-c2c[nH]c(C(=O)N[C@H](CO)c3cccc(Cl)c3)c2)c(Cl)cn1 [ULIXERTINIB]"
  TGT: "Serine/threonine-protein kinase MRCK gamma (Homo sapiens)"
  Kd: "> 30 µM (inactive)"
- COMPOUND: "CC[C@H](Nc1ncnc2[nH]cnc12)c1nc2cccc(F)c2c(=O)n1-c1ccccc1 [IDELALISIB]"
  TGT: "Serine/threonine-protein kinase MRCK gamma (Homo sapiens)"
  Kd: "> 30 µM (inactive)"
- COMPOUND: "COC(=O)N[C@@H](C)CNc1nccc(-c2cn(C(C)C)nc2-c2cc(Cl)cc(NS(C)(=O)=O)c2F)n1 [ENCORAFENIB]"
  TGT: "Serine/threonine-protein kinase MRCK gamma (Homo sapiens)"
  Kd: "> 30 µM (inactive)"

Let's switch to this compound now.
IN: Can you look up Kd on Serine/threonine-protein kinase MRCK gamma (Homo sapiens) for Cn1ncc(Cl)c1-c1cc(C(=O)N[C@H](CN)Cc2cccc(F)c2)sc1Cl [AFURESERTIB] ?
OUT: > 30 µM (inactive)

---

molecular target: Serine/threonine-protein kinase D2 (Homo sapiens, UniProt Q9BZL6); note: in the data inactive means no Kd found up to 30 µM
Sequence (Q9BZL6 whole entry): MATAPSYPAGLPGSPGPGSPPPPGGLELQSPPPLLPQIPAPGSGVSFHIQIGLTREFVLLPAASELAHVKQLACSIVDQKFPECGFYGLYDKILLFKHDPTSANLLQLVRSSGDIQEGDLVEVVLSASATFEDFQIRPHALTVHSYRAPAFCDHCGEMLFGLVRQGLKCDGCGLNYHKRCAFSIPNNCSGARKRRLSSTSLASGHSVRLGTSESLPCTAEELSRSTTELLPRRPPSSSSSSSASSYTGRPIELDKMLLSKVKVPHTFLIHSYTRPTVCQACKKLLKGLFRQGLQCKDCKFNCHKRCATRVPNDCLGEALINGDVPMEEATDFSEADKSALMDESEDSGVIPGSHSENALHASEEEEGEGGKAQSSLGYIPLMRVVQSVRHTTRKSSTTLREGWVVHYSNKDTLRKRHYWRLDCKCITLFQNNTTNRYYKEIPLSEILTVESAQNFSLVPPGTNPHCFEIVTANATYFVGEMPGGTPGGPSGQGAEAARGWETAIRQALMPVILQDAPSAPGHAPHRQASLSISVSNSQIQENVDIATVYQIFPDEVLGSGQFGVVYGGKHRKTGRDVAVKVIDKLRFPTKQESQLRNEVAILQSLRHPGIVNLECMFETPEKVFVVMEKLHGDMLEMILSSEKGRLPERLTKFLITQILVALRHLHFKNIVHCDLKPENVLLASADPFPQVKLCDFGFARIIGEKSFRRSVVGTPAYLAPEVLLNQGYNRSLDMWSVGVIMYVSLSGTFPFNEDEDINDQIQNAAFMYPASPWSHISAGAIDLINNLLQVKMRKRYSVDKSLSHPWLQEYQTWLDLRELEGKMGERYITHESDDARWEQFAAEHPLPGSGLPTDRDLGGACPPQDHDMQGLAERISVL
The source made the active and inactive calls.
Choose the fitting class; nothing outside true = active, false = inactive is accepted.

The examples below pair each entry with its known result.
- COMPOUND: "Cn1ncc(Cl)c1-c1cc(C(=O)N[C@H](CN)Cc2cccc(F)c2)sc1Cl [AFURESERTIB]"
  ASSIGNED CATEGORY: "true"
- COMPOUND: "CC(=O)Nc1cccc(-n2c(=O)n(C3CC3)c(=O)c3c(Nc4ccc(I)cc4F)n(C)c(=O)c(C)c32)c1 [TRAMETINIB]"
  ASSIGNED CATEGORY: "false"
- COMPOUND: "CNC(=O)CN1CCC(Oc2cc3c(Nc4cccc(Cl)c4F)ncnc3cc2OC)CC1 [SAPITINIB]"
  ASSIGNED CATEGORY: "false"

Next compound, please.
IN: Answer briefly: the call reported for Cc1cc2c(F)c(Oc3ncnn4cc(OC[C@@H](C)OC(=O)[C@H](C)N)c(C)c34)ccc2[nH]1 [BRIVANIB ALANINATE] in this assay.
OUT: false

---

Target: Dual specificity mitogen-activated protein kinase kinase 3 (Homo sapiens, UniProt P46734); note: in the data inactive means no Kd found up to 30 µM
Sequence (P46734 whole entry): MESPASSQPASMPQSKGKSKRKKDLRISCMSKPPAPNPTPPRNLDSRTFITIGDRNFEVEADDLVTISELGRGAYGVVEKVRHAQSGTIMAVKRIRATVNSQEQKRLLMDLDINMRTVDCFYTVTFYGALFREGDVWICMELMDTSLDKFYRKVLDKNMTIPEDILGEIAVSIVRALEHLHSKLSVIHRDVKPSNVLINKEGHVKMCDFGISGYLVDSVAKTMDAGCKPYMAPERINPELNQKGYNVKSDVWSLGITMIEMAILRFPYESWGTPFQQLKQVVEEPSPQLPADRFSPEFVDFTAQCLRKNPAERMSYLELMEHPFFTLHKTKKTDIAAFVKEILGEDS
The source made the active and inactive calls.
Attribute: Kd

Past entries and their recorded results:
- SAMPLE SMILES: "COc1cc(CCc2cc(NC(=O)c3ccc(N4C[C@@H](C)N[C@@H](C)C4)cc3)n[nH]2)cc(OC)c1"
  TGT: "Dual specificity mitogen-activated protein kinase kinase 3 (Homo sapiens, UniProt P46734)"
  QUANTITY MEASURED: "Kd"
  ASSAY VALUE: "> 30 µM (inactive)"
- SAMPLE SMILES: "CNC(=O)c1ccc(-c2cnc3ncc(Cc4ccc5ncccc5c4)n3n2)cc1F"
  TGT: "Dual specificity mitogen-activated protein kinase kinase 3 (Homo sapiens, UniProt P46734)"
  QUANTITY MEASURED: "Kd"
  ASSAY VALUE: "> 30 µM (inactive)"
- SAMPLE SMILES: "Cc1ccc(-n2nc(C(C)(C)C)cc2NC(=O)NCc2cc(F)ccc2Oc2ccc3c(cnn3CCO)c2)cc1"
  TGT: "Dual specificity mitogen-activated protein kinase kinase 3 (Homo sapiens, UniProt P46734)"
  QUANTITY MEASURED: "Kd"
  ASSAY VALUE: "> 30 µM (inactive)"

Let's switch to this compound now.
IN: Can you look up Kd on Dual specificity mitogen-activated protein kinase kinase 3 (Homo sapiens, UniProt P46734) for `CNS(=O)(=O)Nc1nccc(Cc2c(C)c3ccc(Oc4ncccn4)cc3oc2=O)c1F` ?
OUT: > 30 µM (inactive)

Reference for the values: ChEMBL document CHEMBL3991601
